All figures here come from paper PMC12121777.

System: Mtb 8666/2010
assay-text: microbe, parasite or virus in culture
Type: cell-based
measurement-parameters: Mycobacterium tuberculosis, 8666/2010, 336 h, read-out: MIC Mtb 8666/2010
Assignment: determine reported MIC for the given molecules.
I only need the number, in µM, no unit after it.

The value of MIC measured for the molecule CCCCCCCCCCNc1nnc(-c2cc([N+](=O)[O-])cc([N+](=O)[O-])c2)o1 [Compound 5j] turned out to be 0.25

For CCCCCCCNC(=O)NNC(=O)c1cc([N+](=O)[O-])cc([N+](=O)[O-])c1 [Compound 4g] the molecule record lists MIC as 1

The molecule listed as CCCCCCCCCCCNc1nnc(-c2cc([N+](=O)[O-])cc([N+](=O)[O-])c2)o1 [Compound 5k] shows MIC equal to 0.25

----------
Tested on: Mtb 234/2005
assay-text: microbe, parasite or virus in culture
Assay type: cell-based
measurement-parameters: Mycobacterium tuberculosis, 234/2005, 504 h, read-out: MIC Mtb 234/2005
What MIC was measured for each of the following?
# value in µM; strip the unit string

Bench note, Mtb 234/2005: entry CCCCCNc1nnc(-c2cc([N+](=O)[O-])cc([N+](=O)[O-])c2)o1 , its MIC = 0.125

Summary line: CCCCCCCCCCCCNC(=S)NNC(=O)c1cc([N+](=O)[O-])cc([N+](=O)[O-])c1 , Mtb 234/2005, reported MIC = 4

# value of MIC, Mtb 234/2005, item CCCCCCCCCCNc1nnc(-c2cc([N+](=O)[O-])cc([N+](=O)[O-])c2)o1 = 0.5

Bench note, Mtb 234/2005: entry CCCCCCCCNC(=O)NNC(=O)c1cc([N+](=O)[O-])cc([N+](=O)[O-])c1 , its MIC = 1

The compound CCCCCCCCCNc1nnc(-c2cc([N+](=O)[O-])cc([N+](=O)[O-])c2)o1 , when measured on Mtb 234/2005, yielded MIC of 0.125

Fill in: Mtb 234/2005 MIC for CCCCCCCNc1nnc(-c2cc([N+](=O)[O-])cc([N+](=O)[O-])c2)o1 = 0.06

Result for CCCCCCCNC(=O)NNC(=O)c1cc([N+](=O)[O-])cc([N+](=O)[O-])c1 , tested on Mtb 234/2005, MIC: 2

----------
Tested on: Mtb Praha 4
assay-text: microbe, parasite or virus in culture
Assay type: cell-based
measurement-parameters: Mycobacterium tuberculosis, PRAHA4, 504 h, read-out: MIC Mtb Praha 4
Answer each item with its documented MIC.
The figure you give is taken to be in µM; do not add the unit.

# compound CCCCCCCCCCCCNc1nnc(-c2cc([N+](=O)[O-])cc([N+](=O)[O-])c2)s1 [Compound 5s] ; its MIC = 1

For this compound ( CCCCCCCCCCCCNC(=S)NNC(=O)c1cc([N+](=O)[O-])cc([N+](=O)[O-])c1 [Compound 4s] ), measured MIC is 2

MIC reported for this compound CCCCCCCCCCCNc1nnc(-c2cc([N+](=O)[O-])cc([N+](=O)[O-])c2)o1 [Compound 5k] : 0.5

Reported MIC of CCCCCCCCCCCCCNc1nnc(-c2cc([N+](=O)[O-])cc([N+](=O)[O-])c2)o1 [Compound 5m] : 0.125

Input CCCCCCCCNc1nnc(-c2cc([N+](=O)[O-])cc([N+](=O)[O-])c2)o1 [Compound 5h] . Output MIC: 0.125

# MIC (compound: CCCCCNc1nnc(-c2cc([N+](=O)[O-])cc([N+](=O)[O-])c2)o1 [Compound 5e] ) is 0.5

Entry CCCCCCCNc1nnc(-c2cc([N+](=O)[O-])cc([N+](=O)[O-])c2)o1 [Compound 5g] — recorded MIC = 0.06

----------
Test system: Mtb Praha 131
assay-text: microbe, parasite or virus in culture
Format: cell-based
measurement-parameters: Mycobacterium tuberculosis, PRAHA131, 504 h, read-out: MIC Mtb Praha 131
Give measured MIC for each item. Keep answers brief.

Looking up COc1ccc(CNc2nnc(-c3cc([N+](=O)[O-])cc([N+](=O)[O-])c3)o2)cc1 , I found its MIC recorded as ≤ 0.03 µM

CCCCCCCCNc1nnc(-c2cc([N+](=O)[O-])cc([N+](=O)[O-])c2)o1 yielded MIC of 0.125 µM

Sample CCCCCCCCCCCNc1nnc(-c2cc([N+](=O)[O-])cc([N+](=O)[O-])c2)o1 ; MIC observed: 0.5 µM

Consider CCCCCCCCCCCCNC(=S)NNC(=O)c1cc([N+](=O)[O-])cc([N+](=O)[O-])c1 . Its measured MIC is 4 µM

Per the record, O=[N+]([O-])c1cc(-c2nnc(NCc3ccc(Cl)cc3Cl)o2)cc([N+](=O)[O-])c1 has MIC of 0.125 µM

Noted for CCCCCCNc1nnc(-c2cc([N+](=O)[O-])cc([N+](=O)[O-])c2)o1 : its MIC reads ≤ 0.03 µM

Per the records, this molecule ( CCCCCCCCCNc1nnc(-c2cc([N+](=O)[O-])cc([N+](=O)[O-])c2)o1 ) has MIC equal to 0.06 µM

The reported MIC of the molecule CCCCCNc1nnc(-c2cc([N+](=O)[O-])cc([N+](=O)[O-])c2)o1 was 0.125 µM

Data point: COc1ccc(CNc2nnc(-c3cc([N+](=O)[O-])cc([N+](=O)[O-])c3)s2)cc1 ; MIC = ≤ 0.03 µM

Form: molecule = CCCCCCCCCCCCNc1nnc(-c2cc([N+](=O)[O-])cc([N+](=O)[O-])c2)o1 ; MIC = 0.5 µM

Form field MIC, entry CCCCCCCCCNC(=O)NNC(=O)c1cc([N+](=O)[O-])cc([N+](=O)[O-])c1 : 2 µM

The recorded MIC for entry CCCCCCCNC(=O)NNC(=O)c1cc([N+](=O)[O-])cc([N+](=O)[O-])c1 equals 2 µM

Value of measured MIC for the entry CCCCCCCCCCNc1nnc(-c2cc([N+](=O)[O-])cc([N+](=O)[O-])c2)o1 : 0.5 µM

----------
System: Mtb Praha 131
assay-text: microbe, parasite or virus in culture
Format: cell-based
measurement-parameters: Mycobacterium tuberculosis, PRAHA131, 336 h, read-out: MIC Mtb Praha 131
Kindly state log10 MIC for each of the entries shown.
Remember, log10 of MIC, in µM.

Field log10 MIC (entry CCCCCCCCCCCCCNc1nnc(-c2cc([N+](=O)[O-])cc([N+](=O)[O-])c2)o1 ) reads -0.90

Entry CCCCCCCCCCCCNC(=S)NNC(=O)c1cc([N+](=O)[O-])cc([N+](=O)[O-])c1 , log10 MIC reported as 0.30

Value of log10 MIC reported for the compound CCCCCCCCCNC(=O)NNC(=O)c1cc([N+](=O)[O-])cc([N+](=O)[O-])c1 is 0.00

Reported log10 MIC ( CCCCCCCNc1nnc(-c2cc([N+](=O)[O-])cc([N+](=O)[O-])c2)o1 ) = -1.22

// recorded log10 MIC for O=[N+]([O-])c1cc(-c2nnc(NCc3ccc(Cl)cc3Cl)o2)cc([N+](=O)[O-])c1 : -0.90

Note to self: log10 MIC recorded for CCCCCCCCCNc1nnc(-c2cc([N+](=O)[O-])cc([N+](=O)[O-])c2)o1 was -1.22

Sample CCCCCCCCCCCNc1nnc(-c2cc([N+](=O)[O-])cc([N+](=O)[O-])c2)o1 ; log10 MIC observed: -0.60

Documented log10 MIC of CCCCCCCCCCCCNc1nnc(-c2cc([N+](=O)[O-])cc([N+](=O)[O-])c2)o1 : -0.60

The compound listed as CCCCCCCCNC(=O)NNC(=O)c1cc([N+](=O)[O-])cc([N+](=O)[O-])c1 shows log10 MIC equal to 0.00

----------
Tested on: Mtb 8666/2010
assay-text: microbe, parasite or virus in culture
Type: cell-based
measurement-parameters: Mycobacterium tuberculosis, 8666/2010, 336 h, read-out: MIC Mtb 8666/2010
value-kind: MIC

Reported MIC (Mtb 8666/2010) for entry COc1ccc(CNc2nnc(-c3cc([N+](=O)[O-])cc([N+](=O)[O-])c3)o2)cc1 [Compound 7b] is ≤ 0.03 µM

The compound CCCCCCNc1nnc(-c2cc([N+](=O)[O-])cc([N+](=O)[O-])c2)o1 [Compound 5f] on Mtb 8666/2010: MIC was ≤ 0.03 µM

Record for COc1ccc(CNc2nnc(-c3cc([N+](=O)[O-])cc([N+](=O)[O-])c3)s2)cc1 [Compound 8b] under target or system Mtb 8666/2010: MIC reported as ≤ 0.03 µM
